- Tested on: rodent lifetime carcinogenesis bioassay, tumor incidence TD50
- assay.text: carcinogenic potency in animals, long-term in vivo studies, CPDB compilation (AID 1745844)
- experimental.context: mouse; strain B6C3F1; males; in drinking water; site: kidney; lesion: renal-cell carcinoma; dosed 100 weeks; study length 100 weeks
reported.property: TD50 (mg/kg/day)
State the answer as a number, implicitly in mg/kg/day.

Field TD50 (system: rodent lifetime carcinogenesis bioassay, tumor incidence TD50) for entry [O-][Br+2]([O-])O = 92.5

----------
- System: rodent lifetime carcinogenesis bioassay, tumor incidence TD50
- assay.text: carcinogenic potency in animals, long-term in vivo studies, CPDB compilation (AID 1745844)
- experimental.context: rat; strain Fischer 344; males; by gavage; site: colon + rectum; lesion: adenocarcinoma, NOS; dosed 102 weeks; study length 104 weeks
reported.property: TD50

TD50 reported for this compound ClC(Cl)Br : 35.6 mg/kg/day

----------
- Tested on: rodent lifetime carcinogenesis bioassay, tumor incidence TD50
- assay.text: carcinogenic potency in animals, long-term in vivo studies, CPDB compilation (AID 1745844)
- experimental.context: mouse; strain CF-1; males; in feed; site: liver; lesion: liver-cell tumor, type B; dosed 120 weeks; study length 134 weeks
reported.property: TD50

TD50 reported for this molecule ClC1=C(Cl)[C@]2(Cl)[C@@H]3[C@@H]4C[C@@H]([C@H]5O[C@@H]45)[C@@H]3[C@@]1(Cl)C2(Cl)Cl : 1.68 mg/kg/day

----------
- Tested on: rodent lifetime carcinogenesis bioassay, tumor incidence TD50
- assay.text: carcinogenic potency in animals, long-term in vivo studies, CPDB compilation (AID 1745844)
- experimental.context: rat; strain Charles River CD (Sprague-Dawley); males; in feed; site: any site (literature study); lesion: several types; types named in the paper; dosed 77 weeks; study length 98 weeks
Active and inactive are the calls of the source. The rule behind the calls is not given here.
reported.property: TD50

Use the examples below as a reference point.
Cc1cccc(N)c1 | 98.4 mg/kg/day (inactive)
Cc1cc(Cl)ccc1N | 24.9 mg/kg/day (inactive)
Nc1ccc(Cc2ccc(N)c(Cl)c2)cc1Cl | 33.4 mg/kg/day
Nc1c(F)c(N)c(F)c(F)c1F | 14.6 mg/kg/day (inactive)
Cc1ccc(N)c(C)c1 | 16.8 mg/kg/day (inactive)
Cc1cc(C)c(N)cc1C | 37.2 mg/kg/day

TD50 reported for this molecule Nc1ccc(Oc2ccc(Cl)cc2)cc1 : 25.1 mg/kg/day

----------
- Test system: rodent lifetime carcinogenesis bioassay, tumor incidence TD50
- assay.text: carcinogenic potency in animals, long-term in vivo studies, CPDB compilation (AID 1745844)
- experimental.context: rat; strain Fischer 344; males; in feed; site: liver; lesion: several types; types named in the paper; dosed 110 weeks; study length 133 weeks
reported.property: TD50

TD50 reported for this compound CN(C)CCN(Cc1cccs1)c1ccccn1 : 7.7 mg/kg/day

----------
- Tested on: rodent lifetime carcinogenesis bioassay, tumor incidence TD50
- assay.text: carcinogenic potency in animals, long-term in vivo studies, CPDB compilation (AID 1745844)
- experimental.context: rat; strain Fischer 344; females; in feed; site: Zymbal's gland; lesion: carcinoma, NOS; dosed 103 weeks; study length 104 weeks
reported.property: TD50

TD50 reported for this compound N=C1C=CC(=C(c2ccc(N)cc2)c2ccc(N)cc2)C=C1 : 190 mg/kg/day
